# System: P. aeruginosa
# MEASUREMENT_PROTOCOL: Minimal inhibitory concentration (MIC), modified CLSI broth microdilution in CAA or CAA/HuS
# Type: cell-based, Pseudomonas aeruginosa
# RUN_PARAMETERS: CAA supplemented with 25% human serum
Criterion: MIC (μg/mL in CAA/HuS) strictly under 8 µg/mL. Met: 1. Not met: 0.

Here are 3 molecules together with their reported answers.
MOLECULE | DISCRETE_LABEL
GN121: Modified GN37, C-terminal peptide RKKTRKRLKKIGKVLKWI, SEQ ID NO: 13 (protein) MTYTLSKRSLDNLKGVHPDLVAVVHRAIQLTPVDFAVIEGLRSVSRQKELVAAGASKTMNSRHLTGHAVDLAAYVNGIRWDWPLYDAIAVAVKAAAKELGVAIVWGGDWTTFKDGPHFELDRSKYRRKKTRKRLKKIGKVLKWI | 1
GN147: Modified GN3, amino acid substitutions (R101D, R117H), SEQ ID NO: 5 (protein) MRTSQRGLSLIKSFEGLRLQAYQDSVGVWTIGYGTTRGVKAGMKISKDQAERMLLNDVQRFEPEVERLIKVPLNQDQWDALMSFTYNLGAANLESSTLRDLLNAGNYAAAAEQFPHWNKAGGQVLAGLTRRRAAERELFLGAA | 1
GN4: Native lysin, YP_002284361.1/Lysozyme, SEQ ID NO: 3; first disclosed in WO/2017/049233 (protein, Pseudomonas phage PAJU2) MRTSQRGIDLIKSFEGLRLSAYQDSVGVWTIGYGTTRGVTRYMTITVEQAERMLSNDIQRFEPELDRLAKVPLNQNQWDALMSFVYNLGAANLASSTLLKLLNKGDYQGAADQFPRWVNAGGKRLDGLVKRRAAERALFLEPLS | 0

Could you now look at the following molecule, please?
Lab log: compare recorded MIC (μg/mL in CAA/HuS) with 8 µg/mL; is it strictly lower for GN123: Native lysin, GenBank YP_009217242.1, SEQ ID NO: 27 (protein, Pseudomonas phage PhiPA3) MTLLKKGDKGDAVKQLQQKLKDLGYTLGVDGNFGNGTDTVVRSFQTKMKLSVDGVVGNGTMSTIDSTLAGIKAWKTSVPFPATNKSRAMAMPTLTEIGRLTNVDPKLLATFCSIESAFDYTAKPYKPDGTVYSSAEGWFQFLDATWDDEVRKHGKQYSFPVDPGRSLRKDPRANGLMGAEFLKGNAAILRPVLGHEPSDTDLYLAHFMGAGGAKQFLMADQNKLAAELFPGPAKANPNIFYKSGNIARTLAEVYAVLDAKVAKHRA ? 0
